Where do the numbers come from? From the supplement of paper PMC7125110.

B1: glmS ribozyme (parent)
chain: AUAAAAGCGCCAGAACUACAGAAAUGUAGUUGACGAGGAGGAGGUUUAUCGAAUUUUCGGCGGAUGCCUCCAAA

- Variants of: B1
- Assay Protocol: self-cleavage kobs at 2500 uM GlcN6P; higher = faster cleavage; RNA array
- Experimental Conditions: with glucosamine-6-phosphate
This sample holds only a part of the variants without activity.
Result Type: self-cleavage kobs at 2500 uM GlcN6P (s⁻¹)

{"Variant Name": "A12U G32A G41C G62U C68U", "Result Type": "self-cleavage kobs at 2500 uM GlcN6P", "Unit Name": "s⁻¹", "Bound Sign": "<", "Reported Value": "1e-05"}
{"Variant Name": "C8A U30G", "Result Type": "self-cleavage kobs at 2500 uM GlcN6P", "Unit Name": "s⁻¹", "Bound Sign": "<", "Reported Value": "1e-05"}
{"Variant Name": "U55A C68A", "Result Type": "self-cleavage kobs at 2500 uM GlcN6P", "Unit Name": "s⁻¹", "Bound Sign": "=", "Reported Value": "6.96e-05"}
{"Variant Name": "U46C A52C G60U C61U", "Result Type": "self-cleavage kobs at 2500 uM GlcN6P", "Unit Name": "s⁻¹", "Bound Sign": "<", "Reported Value": "1e-05"}
{"Variant Name": "U30G C67A", "Result Type": "self-cleavage kobs at 2500 uM GlcN6P", "Unit Name": "s⁻¹", "Bound Sign": "=", "Reported Value": 0.00063}
{"Variant Name": "A6G A48G C71A", "Result Type": "self-cleavage kobs at 2500 uM GlcN6P", "Unit Name": "s⁻¹", "Bound Sign": "<", "Reported Value": "1e-05"}
{"Variant Name": "C16G A52G", "Result Type": "self-cleavage kobs at 2500 uM GlcN6P", "Unit Name": "s⁻¹", "Bound Sign": "=", "Reported Value": 0.000119}
{"Variant Name": "C11A G29U", "Result Type": "self-cleavage kobs at 2500 uM GlcN6P", "Unit Name": "s⁻¹", "Bound Sign": "=", "Reported Value": "3.72e-05"}
{"Variant Name": "G41U A48U C68A", "Result Type": "self-cleavage kobs at 2500 uM GlcN6P", "Unit Name": "s⁻¹", "Bound Sign": "<", "Reported Value": "1e-05"}
{"Variant Name": "A53C A64G", "Result Type": "self-cleavage kobs at 2500 uM GlcN6P", "Unit Name": "s⁻¹", "Bound Sign": "=", "Reported Value": 0.00249}
{"Variant Name": "A14G G32C A53U", "Result Type": "self-cleavage kobs at 2500 uM GlcN6P", "Unit Name": "s⁻¹", "Bound Sign": "=", "Reported Value": "6.01e-05"}
{"Variant Name": "C11G A14U G35U C70G", "Result Type": "self-cleavage kobs at 2500 uM GlcN6P", "Unit Name": "s⁻¹", "Bound Sign": "=", "Reported Value": 0.00022}
{"Variant Name": "A33C C50G C71U", "Result Type": "self-cleavage kobs at 2500 uM GlcN6P", "Unit Name": "s⁻¹", "Bound Sign": "=", "Reported Value": 0.000589}
{"Variant Name": "A14C U31A A42C A48G C71G", "Result Type": "self-cleavage kobs at 2500 uM GlcN6P", "Unit Name": "s⁻¹", "Bound Sign": "<", "Reported Value": "1e-05"}
{"Variant Name": "C10A G13U A15G G40U U46G", "Result Type": "self-cleavage kobs at 2500 uM GlcN6P", "Unit Name": "s⁻¹", "Bound Sign": "<", "Reported Value": "1e-05"}
{"Variant Name": "G35C U57A", "Result Type": "self-cleavage kobs at 2500 uM GlcN6P", "Unit Name": "s⁻¹", "Bound Sign": "<", "Reported Value": "1e-05"}
{"Variant Name": "A15U C71U", "Result Type": "self-cleavage kobs at 2500 uM GlcN6P", "Unit Name": "s⁻¹", "Bound Sign": "=", "Reported Value": 0.00528}
{"Variant Name": "C10U A33C U46C G51C G60C", "Result Type": "self-cleavage kobs at 2500 uM GlcN6P", "Unit Name": "s⁻¹", "Bound Sign": "<", "Reported Value": "1e-05"}
{"Variant Name": "G13A A15U", "Result Type": "self-cleavage kobs at 2500 uM GlcN6P", "Unit Name": "s⁻¹", "Bound Sign": "=", "Reported Value": "6.03e-05"}
{"Variant Name": "A6U U54A", "Result Type": "self-cleavage kobs at 2500 uM GlcN6P", "Unit Name": "s⁻¹", "Bound Sign": "=", "Reported Value": 0.000837}
{"Variant Name": "U46C U56G", "Result Type": "self-cleavage kobs at 2500 uM GlcN6P", "Unit Name": "s⁻¹", "Bound Sign": "=", "Reported Value": 0.00128}
{"Variant Name": "C58G U69G", "Result Type": "self-cleavage kobs at 2500 uM GlcN6P", "Unit Name": "s⁻¹", "Bound Sign": "=", "Reported Value": "5.1e-05"}
